MEASUREMENT DESCRIPTION: NCI Yeast Anticancer Drug Screen. Data for the mlh1 rad18 strain (AID 175)
ASSAY CONDITIONS: S. cerevisiae mlh1 rad18 strain growth inhibition; at 50.0 µM; active compounds read high
Compounds without any hit were thinned out: in the full panel of roughly 79,000, 15% have a hit.
We'd kindly ask you to apply these growth inhibition classes: bottom = under -10%, middle = from -10% up to 10%, top = 10% and over

Q: // bin(item) where item = NC(=O)Nc1ccccc1
Ans: top

Q: // bin(item) where item = CCOc1nc(SCC)nc2c1cnn2-c1ccccc1
Ans: bottom

Q: // bin(item) where item = Cc1ccc2oc(=O)c(C(=O)Nc3nc(C45CC6CC(CC(C6)C4)C5)cs3)cc2c1
Ans: bottom

Q: // bin(item) where item = COc1cc(C(=O)NC2CCc3cc(OC)c(OC)c(OC)c3-c3ccc(OC)c(=O)cc32)cc(OC)c1OC (configuration not stated)
Ans: middle

Q: // bin(item) where item = Cn1c([N+](=O)[O-])cnc1COc1ccc(OCc2ncc([N+](=O)[O-])n2C)cc1
Ans: middle

Q: // bin(item) where item = CC(=O)OCC1OC(n2cnc([N+](=O)[O-])c2Br)C(OC(C)=O)C1OC(C)=O (configuration not stated)
Ans: top

Q: // bin(item) where item = COc1cccc(/C=C\C#N)c1
Ans: bottom

Q: // bin(item) where item = Cc1cccc(C)c1NCC1CO1 (configuration not stated)
Ans: bottom

Q: // bin(item) where item = Cc1cc(N=Cc2cccs2)cc(Cl)c1O
Ans: top

Q: // bin(item) where item = CC(=O)SC1CC(=O)OC1=O (configuration not stated)
Ans: middle

Q: // bin(item) where item = CC(NC(=O)Nc1ccccc1Cl)c1ccccc1 (configuration not stated)
Ans: top

Q: // bin(item) where item = C1CN(SSN2CCSCC2)CCS1
Ans: bottom

---

MEASUREMENT DESCRIPTION: NCI Yeast Anticancer Drug Screen. Data for the bub3 strain (AID 167)
ASSAY CONDITIONS: S. cerevisiae bub3 mutant strain, at 50.0 µM, active compounds read high
Compounds without any hit were thinned out: in the full panel of roughly 79,000, 15% have a hit.
Could you please report measured growth inhibition for the items listed next?
Reply with just the number (in %).

Q: Give its growth inhibition value. Item: CC1CC2=C(C(=O)c3ccccc3C2=O)C(C)O1 (stereo unspecified)
Ans: 41.5

Q: Give its growth inhibition value. Item: COc1c(OC)c(C(C)C)c2c(c1C(=O)O)C(=O)OC2=O
Ans: -7.5

Q: Give its growth inhibition value. Item: CCC(C)n1c(C)nc2cc(C(F)(F)F)cc(N)c21 (stereo unspecified)
Ans: 11.6

Q: Give its growth inhibition value. Item: CN(C(=O)c1ccncc1)c1ccccc1
Ans: -31.1

Q: Give its growth inhibition value. Item: CCCCOC(=O)NC(=O)c1cn(CCCOC(=O)CCCCCCCCC(=O)OCCCn2cc(C(=O)NC(=O)OCCCC)c(=O)n(C)c2=O)c(=O)n(C)c1=O
Ans: 14.3

Q: Give its growth inhibition value. Item: [N-]=[N+]=CC(=O)C(CN)(Cc1ccccc1)c1ccc(Cl)cc1 (stereo unspecified)
Ans: -9.45

Q: Give its growth inhibition value. Item: N#Cc1cnn(-c2ccc([N+](=O)[O-])cc2)c1N
Ans: 1.7

Q: Give its growth inhibition value. Item: CCOC(=O)C(C)(C(C)=O)c1nc(=S)[nH]c(=S)[nH]1 (stereo unspecified)
Ans: 7.25

Q: Give its growth inhibition value. Item: Nc1ncnc2nc(N=Nc3ccc(S(=O)(=O)O)cc3)[nH]c12
Ans: -6.35

Q: Give its growth inhibition value. Item: CCOC(=O)C(=CC(C)(C)C)C(=O)OCC
Ans: 21.1

Q: Give its growth inhibition value. Item: C=C(c1nc2ccc(Cl)cc2[nH]c1=O)C(O)c1ccc(C(O)C(=O)c2nc3ccc(Cl)cc3[nH]c2=O)cc1 (stereo unspecified)
Ans: -1.4
